The origin of these recorded values is paper PMC5638539.

SYSTEM_TESTED: TcGr20 (gustatory receptor 20) (Tribolium castaneum, UniProt D2A5I4)
Construct: ORF of TcGr20 expressed in Xenopus oocytes
Sequence (D2A5I4 1-388): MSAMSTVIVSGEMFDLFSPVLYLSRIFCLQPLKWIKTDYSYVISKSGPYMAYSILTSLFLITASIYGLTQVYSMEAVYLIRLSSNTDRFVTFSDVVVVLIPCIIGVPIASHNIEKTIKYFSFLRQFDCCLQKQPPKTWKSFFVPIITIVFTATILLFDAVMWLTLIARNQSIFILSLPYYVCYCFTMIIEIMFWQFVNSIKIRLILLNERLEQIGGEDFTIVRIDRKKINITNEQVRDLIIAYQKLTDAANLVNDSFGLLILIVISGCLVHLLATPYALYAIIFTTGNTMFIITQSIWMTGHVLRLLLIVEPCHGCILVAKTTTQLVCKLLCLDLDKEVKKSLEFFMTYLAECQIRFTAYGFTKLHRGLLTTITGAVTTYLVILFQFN
METHOD_SUMMARY: two-electrode voltage clamp in Xenopus oocytes expressing TcGr20, dose-response
Format: cell-based
MEASURE_NAME: EC50 (mM)

OC[C@@H](O)[C@@H](O)[C@H](O)[C@@H](O)CO :: 90.6
